Below: a set of entries, each annotated with reported tissue uptake at 24 h.
assay: in vivo; design: species or system mice; details: male, NODSCID 1L2RγKO, mouse, iv, total radioactivity, Pancreas uptake

# Compound, tissue uptake at 24 h (%ID/g)
rows = [
    ("O=C(O)CCC[C@H](NC(=O)N[C@@H](CCCCNC(=O)[C@H](Cc1c2ccccc2cc2ccccc12)NC(=O)[C@H]1CC[C@H](CNC(=O)[C@H](CCCCNC(=O)CN2CCN(CC(=O)O)CCN(CC(=O)O)CCN(CC(=O)O)CC2)NC(=O)CNC(=O)CCCc2ccc(Cl)cc2)CC1)C(=O)O)C(=O)O [177Lu-HTK03153, metal not drawn]", 0.77),
    ("COc1ccc(CCCC(=O)NCC(=O)N[C@@H](CCCCNC(=O)CN2CCN(CC(=O)O)CCN(CC(=O)O)CCN(CC(=O)O)CC2)C(=O)NC[C@H]2CC[C@H](C(=O)N[C@@H](Cc3c4ccccc4cc4ccccc34)C(=O)NCCCC[C@H](NC(=O)N[C@@H](CSCC(=O)O)C(=O)O)C(=O)O)CC2)cc1 [177Lu-HTK04048, metal not drawn]", 0.17),
    ("COc1ccc(CCCC(=O)NCC(=O)N[C@@H](CCCCNC(=O)CN2CCN(CC(=O)O)CCN(CC(=O)O)CCN(CC(=O)O)CC2)C(=O)NC[C@H]2CC[C@H](C(=O)N[C@@H](Cc3c4ccccc4cc4ccccc34)C(=O)NCCCC[C@H](NC(=O)N[C@@H](COCC(=O)O)C(=O)O)C(=O)O)CC2)cc1 [177Lu-HTK04028, metal not drawn]", 0.15),
]

----------
assay: in vivo; set-up: species or system mice; conditions: male, NODSCID 1L2RγKO, mouse, iv, total radioactivity, Lungs uptake
Field 'label' (enum: 1 / -1). Set to 1 when tissue uptake at 1 h is strictly under 9 %ID/g; else -1.

# Compound, Group Label
rows = [
    ("O=C(O)CCC[C@H](NC(=O)N[C@@H](CCCCNC(=O)[C@H](Cc1c2ccccc2cc2ccccc12)NC(=O)[C@H]1CC[C@H](CNC(=O)[C@H](CCCCNC(=O)CN2CCN(CC(=O)O)CCN(CC(=O)O)CCN(CC(=O)O)CC2)NC(=O)CNC(=O)CCCc2ccc(Cl)cc2)CC1)C(=O)O)C(=O)O [177Lu-HTK03153, metal not drawn]", -1),
    ("O=C(O)CCC[C@H](NC(=O)N[C@@H](CCCCNC(=O)[C@H](Cc1c2ccccc2cc2ccccc12)NC(=O)[C@H]1CC[C@H](CNC(=O)CN2CCN(CC(=O)O)CCN(CC(=O)O)CCN(CC(=O)O)CC2)CC1)C(=O)O)C(=O)O [177Lu-HTK03149, metal not drawn]", 1),
    ("COc1ccc(CCCC(=O)NCC(=O)N[C@@H](CCCCNC(=O)CN2CCN(CC(=O)O)CCN(CC(=O)O)CCN(CC(=O)O)CC2)C(=O)NC[C@H]2CC[C@H](C(=O)N[C@@H](Cc3c4ccccc4cc4ccccc34)C(=O)NCCCC[C@H](NC(=O)N[C@@H](COCC(=O)O)C(=O)O)C(=O)O)CC2)cc1 [177Lu-HTK04028, metal not drawn]", 1),
    ("COc1ccc(CCCC(=O)NCC(=O)N[C@@H](CCCCNC(=O)CN2CCN(CC(=O)O)CCN(CC(=O)O)CCN(CC(=O)O)CC2)C(=O)NC[C@H]2CC[C@H](C(=O)N[C@@H](Cc3c4ccccc4cc4ccccc34)C(=O)NCCCC[C@H](NC(=O)N[C@@H](CCCC(=O)O)C(=O)O)C(=O)O)CC2)cc1 [177Lu-HTK03170, metal not drawn]", 1),
]

Value source: patent US11504441B2
